target: Grb2 SH2 (UniProt P62993); experiment: SH2 binding enrichment of the phosphorylated peptide, bacterial display (enrichment ratio); higher = better substrate or ligand; peptides without Tyr show the background
Sequence (P62993 whole entry, looked up): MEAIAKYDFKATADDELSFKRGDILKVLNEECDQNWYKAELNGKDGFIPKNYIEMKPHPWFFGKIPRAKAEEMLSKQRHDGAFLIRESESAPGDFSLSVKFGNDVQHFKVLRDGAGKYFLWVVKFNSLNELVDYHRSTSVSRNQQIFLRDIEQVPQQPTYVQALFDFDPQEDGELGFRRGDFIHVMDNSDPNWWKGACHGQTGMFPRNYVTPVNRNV
Below, each entry is listed alongside its reported SH2 binding enrichment.
Respond using a number only.

Sequence Chain: GLCSFYETSKM [MAGED2_Y449_R446C_YF]
SH2 binding enrichment: 0.895

For the sequence shown here, YEREQYADRAR [RBM4_Y355] , give the reported SH2 binding enrichment.
0.881

Proceed to FLGRDYLETLM [DUS3L_Y610_YF]
0.878

Proceed to PARLEYCENEK [IRS1_Y46_Y47C]
0.909

Proceed to AAVDTYCRHNF [HLA-DRB1_Y107_YF]
0.912

Proceed to DVFRQYASLTG [GANAB_Y379]
0.893

====

target: Fes (UniProt P07332); experiment: phosphorylation enrichment, bacterial display (enrichment ratio); higher = better substrate or ligand; peptides without Tyr show the background
Sequence (P07332 whole entry, looked up): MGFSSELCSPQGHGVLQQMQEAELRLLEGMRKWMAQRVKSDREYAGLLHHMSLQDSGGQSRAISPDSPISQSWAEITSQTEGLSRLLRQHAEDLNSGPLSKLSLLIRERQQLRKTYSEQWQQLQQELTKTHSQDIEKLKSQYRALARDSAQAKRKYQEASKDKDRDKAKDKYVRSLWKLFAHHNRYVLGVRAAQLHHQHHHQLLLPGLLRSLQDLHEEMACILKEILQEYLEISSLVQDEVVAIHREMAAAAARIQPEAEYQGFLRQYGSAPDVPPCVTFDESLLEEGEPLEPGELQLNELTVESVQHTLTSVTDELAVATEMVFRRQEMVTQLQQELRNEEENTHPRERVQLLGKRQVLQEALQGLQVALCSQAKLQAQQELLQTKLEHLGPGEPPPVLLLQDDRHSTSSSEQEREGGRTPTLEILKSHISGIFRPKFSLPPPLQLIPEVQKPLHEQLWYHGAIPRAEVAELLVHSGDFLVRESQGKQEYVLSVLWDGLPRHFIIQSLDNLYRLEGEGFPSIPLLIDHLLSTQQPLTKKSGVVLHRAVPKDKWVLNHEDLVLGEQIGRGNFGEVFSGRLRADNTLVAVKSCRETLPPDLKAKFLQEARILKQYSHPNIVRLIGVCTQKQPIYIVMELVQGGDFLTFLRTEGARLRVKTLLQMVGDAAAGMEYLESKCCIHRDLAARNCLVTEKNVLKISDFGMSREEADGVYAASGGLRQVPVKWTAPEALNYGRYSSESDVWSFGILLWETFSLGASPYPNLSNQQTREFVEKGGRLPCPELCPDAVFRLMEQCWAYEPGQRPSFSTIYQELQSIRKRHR
Reported Metric: phosphorylation enrichment
Respond using a number only.

Please review the entries below; each comes with its answer.
Sequence Chain: ALPVFYAATIA [SLC20A2_Y187]
phosphorylation enrichment: 1.03
--
Sequence Chain: GFDHSYFFIAT [ESD_Y262_YF]
phosphorylation enrichment: 1.28
--
Sequence Chain: KSEKVYTRHGV [FLOT1_Y56]
phosphorylation enrichment: 0.527
--
Sequence Chain: PIQLFYTRRNT [GHR_Y86]
phosphorylation enrichment: 1.13
--
Sequence Chain: PFADPYFDFEI [ZC3H18_Y371_YF]
phosphorylation enrichment: 1.16
--
Sequence Chain: TVDASYFGGRG [ANTXR2_Y380_YF]
phosphorylation enrichment: 0.567

For the sequence shown here, IALSKYGRVKW [FGF6_Y186_R191W] , give the reported phosphorylation enrichment.
0.985

Proceed to AGQEDCDRLRP [CDC42_Y64_Y64C]
0.882

Proceed to SAEEDYKADAK [KCNT1_Y876_M877K]
1.28

Proceed to CITIHYNFMCN [TP53_Y234_T230I_YF]
1.44

Proceed to SNMPTYSGHFS [GRIN2A_Y1224_T1229S]
0.581

Proceed to RLVTRYIYNRE [HLA-DQB1_Y62_Y58L]
0.822

Proceed to LNPLVYTLRNA [OR4C12_Y285_V283L]
1.51

Proceed to TGEKPYECVQC [ZNF24_Y335]
0.7

Proceed to KLGDVYVNVAF [PGK1_Y161_D164V]
1.08

Proceed to PGGKIYISPLK [RB1_Y805_N803K]
0.794

Proceed to GVASDYKCVDP [VPS13B_Y1991_I1994V]
1.16

Proceed to VIGRMYDFHVL [RPF2_Y109_YF]
0.902

Proceed to VHVEVYDRPSP
1.02

Proceed to AIFEGYALPHA [ACTC1_Y171_P166A_YF]
0.801

====

target: c-Src SH2; experiment: SH2 binding enrichment of the phosphorylated peptide, bacterial display (enrichment ratio); higher = better substrate or ligand; peptides without Tyr show the background
Reported Metric: SH2 binding enrichment
Respond using a number only.

Please review the entries below; each comes with its answer.
Sequence Chain: LLNPSYNLPLD [TOM1L1_Y109_R108S]
SH2 binding enrichment: 0.833
--
Sequence Chain: PAIYTYDEYKK [COL8A2_Y648_T645I]
SH2 binding enrichment: 2.29
--
Sequence Chain: SQETYYRVSNM [ABCD1_Y181_Q178E]
SH2 binding enrichment: 0.473

Please turn your attention to the following entry.
For the sequence shown here, PGVNYYFQVSA , give the reported SH2 binding enrichment.
0.561

Source of measurements: the supplement of paper PMC10065799
